B1: Azoarcus group I ribozyme (parent)
chain: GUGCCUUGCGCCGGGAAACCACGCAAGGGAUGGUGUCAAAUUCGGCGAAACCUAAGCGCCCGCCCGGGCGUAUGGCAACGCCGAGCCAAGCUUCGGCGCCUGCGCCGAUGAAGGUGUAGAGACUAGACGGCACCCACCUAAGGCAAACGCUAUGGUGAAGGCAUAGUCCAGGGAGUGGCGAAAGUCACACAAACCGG

Variants of: B1
Assay: reverse-splicing fitness (ratio to wild type); higher = more active; in vitro selection; Mg2+ level not given
Provide the reported reverse-splicing fitness of each item.
Give the figure only, with no unit attached.

Request: Given C82U A111U A120G C150U C169G U176G , state its recorded reverse-splicing fitness.
Response: 0.00456

Request: Same question, C82G A111U C150U C169U U176A this time
Response: 0.014

Request: Same question, C82A A111U A120C A145C C150G C169G U176A this time
Response: 0.0109

Request: Same question, C82G A111C A120G C150U C169A this time
Response: 0.0111

Request: Same question, C82A A120G A145U C169U U176C this time
Response: 0.0169

Request: Same question, C82U A120G A145C C150A C169U U176C this time
Response: 0.00972

Request: Same question, C82A A120U A145G this time
Response: 0.142

Request: Same question, C82U A111U A120U A145U C169U this time
Response: 0.0039

Request: Same question, C82U A111C A145G C150U C169U U176A this time
Response: 0.0144

Request: Same question, A120C C169G U176G this time
Response: 0.0039

Request: Same question, C82G A111C A120C A145U C169G U176C this time
Response: 0.0177

Request: Same question, C82G A111C A145U C150G C169A U176A this time
Response: 0.00956

Request: Same question, A111C A120C A145G C150U C169U U176C this time
Response: 0.0438

Request: Same question, C82A A111U A120C C150G C169G U176A this time
Response: 0.00746

Request: Same question, C82G A111U A120U A145C C150U U176C this time
Response: 0.00545

Request: Same question, C82G A111G C169U this time
Response: 0.0143

Request: Same question, C82G A111G A120C A145U C150U C169G U176C this time
Response: 0.0179

Request: Same question, A111C A120U C150G C169U U176G this time
Response: 0.00276

Request: Same question, A111C A120U A145G C150G C169U U176G this time
Response: 0.00436

Request: Same question, C82A A111C A120G A145G C150A C169A U176G this time
Response: 0.00667

Request: Same question, C82U A111U A120C A145C C150G C169A U176A this time
Response: 0.00641

Request: Same question, C82A A111G A120U C150A C169G U176A this time
Response: 0.00908

Request: Same question, A120C A145C C150U C169A U176C this time
Response: 0.008

Request: Same question, C82U A120C A145G C169G U176A this time
Response: 0.0152

Request: Same question, C82U A111G A120C A145G C150U C169U U176G this time
Response: 0.00448

Request: Same question, C82A A111C A120C A145U C150G C169U U176C this time
Response: 0.0101

Request: Same question, C82A A111G C150U C169A U176G this time
Response: 0.00716

Request: Same question, C82U A111C A120U A145G C150G C169U U176G this time
Response: 0.00411

Request: Same question, C82U A111U A120G A145G C150U C169G U176C this time
Response: 0.016

Request: Same question, C82A A111G A120U A145G C169A U176C this time
Response: 0.00333

Request: Same question, C82G A111G A120U A145G C150A C169G this time
Response: 0.00639

Request: Same question, A120G C150G C169A U176A this time
Response: 0.0128

Request: Same question, A111U A120C C150U U176A this time
Response: 0.154

Request: Same question, C82G A111C A120C A145C C150G this time
Response: 0.0093

Request: Same question, A111U A120C A145U C150U C169G U176G this time
Response: 0.00445

Request: Same question, C82U A120U A145G C169A U176A this time
Response: 0.0025

Request: Same question, A111G A145C U176C this time
Response: 0.78

Request: Same question, A111U A120C A145C C169A U176A this time
Response: 0.00934

Request: Same question, U176C this time
Response: 0.815

Request: Same question, C82A A111G A120U A145U C169A U176A this time
Response: 0.00218

Request: Same question, A111U C169U U176A this time
Response: 0.0279

Request: Same question, C82A A111U A120G C150G C169U U176G this time
Response: 0.00618

Request: Same question, C82G A111U A120G A145C C150G this time
Response: 0.00659

Request: Same question, C82A A111C A120C C169U U176A this time
Response: 0.0152

Request: Same question, A111G C150G C169A U176G this time
Response: 0.00557

Request: Same question, C82A A111G A145G C150A C169U this time
Response: 0.0109

Request: Same question, C82U A111C A120U C150G C169U U176C this time
Response: 0.00516

Request: Same question, A111G A120C A145G C150U U176G this time
Response: 0.0682

Request: Same question, C82G A111U A120C A145C C150U U176C this time
Response: 0.0178

Request: Same question, C82G A111U C150G C169U U176G this time
Response: 0.00728

Request: Same question, C82G A111C C150A C169U this time
Response: 0.0119

Request: Same question, C82U A111U A120C A145G C150A C169G U176A this time
Response: 0.0169

Request: Same question, C82G A111C A120U A145C C150A C169G U176G this time
Response: 0.00223

Request: Same question, A111C A120U A145U C150G C169G U176C this time
Response: 0.00291

Request: Same question, C82A A111G A120U C150U C169U U176C this time
Response: 0.00428

Request: Same question, C82G A111C A145C C169A U176A this time
Response: 0.0184

Request: Same question, C82U A111G A120C A145G C150U C169G U176C this time
Response: 0.0188

Request: Same question, C82U A111C A145U C150G C169G this time
Response: 0.00721

Request: Same question, A111U A120G C150G C169G U176G this time
Response: 0.00442

Request: Same question, C82U C169A this time
Response: 0.00905

Request: Same question, C82U A120G C150G C169U U176G this time
Response: 0.00521

Request: Same question, C82U A120G C169G U176C this time
Response: 0.0246

Request: Same question, C82U A111C A120C C169G U176G this time
Response: 0.00563

Request: Same question, A120G A145C C169U U176A this time
Response: 0.181

Request: Same question, A111U A120G C150G C169A U176A this time
Response: 0.00974

Request: Same question, A120C A145U C150U this time
Response: 0.744

Request: Same question, C82A A111G A120U A145C C150G C169A U176A this time
Response: 0.00214

Request: Same question, C82G A111G C150G C169G U176A this time
Response: 0.0106

Request: Same question, A111U A145U C169U U176G this time
Response: 0.00639

Request: Same question, C82U A111U A120G C150A U176G this time
Response: 0.00633

Request: Same question, A111C A120C A145G C150A C169A U176G this time
Response: 0.00677

Request: Same question, C82G A111G A120C A145C C150U C169A U176G this time
Response: 0.00589

Request: Same question, C82U A120C A145U C150A C169A U176C this time
Response: 0.00669

Request: Same question, C82U A111G A120U A145C C150G C169A U176G this time
Response: 0.00209

Request: Same question, C82A A120U A145U C169A U176G this time
Response: 0.00177

Request: Same question, C82U A111C A120G A145U C150A C169A U176G this time
Response: 0.00481

Request: Same question, C82G A111U A145C C150G U176C this time
Response: 0.0238

Request: Same question, C82A A111U A120C A145U C169G U176C this time
Response: 0.0253

Request: Same question, C82A A111C A145G C150A C169A this time
Response: 0.011

Request: Same question, C82A A120G A145C C150U U176G this time
Response: 0.0042

Request: Same question, C82U A111G A120G A145U C150A C169U U176C this time
Response: 0.0142

Request: Same question, C82G A145U C150G C169G U176C this time
Response: 0.00645

Request: Same question, C82U A111U A120G A145G C150G C169U U176A this time
Response: 0.012

Request: Same question, C82U A120C A145U C169U U176C this time
Response: 0.0155

Request: Same question, C82G A120C A145C C150U C169U U176C this time
Response: 0.00971

Request: Same question, C82U A111G A120U A145C C150A C169G U176G this time
Response: 0.0017

Request: Same question, C82G A111U A145U C150A C169U this time
Response: 0.00955

Request: Same question, C82G A120C A145G C150G C169A this time
Response: 0.0104

Request: Same question, C82U A111G A120C U176G this time
Response: 0.00542

Request: Same question, C82A A111C A120C A145C U176A this time
Response: 0.0123

Request: Same question, C82G A111U A120G A145G C169A this time
Response: 0.0111
